# ASSAY: physchem
# RUN_PARAMETERS: aqueous with cosolvent or surfactant or cyclodextrin
MEASURED_QUANTITY: solubility (mg/mL)
Numbers only, in mg/mL.

Task: For the compound shown here, COc1ccc(-c2cncc(N[C@@H](C)c3cccc(NC(=O)c4cncc(C)c4)c3)n2)cc1OC [PK10571] , give the reported solubility.
Result: 50
